Measured %Inh, listed per entry for reference.
System: LZK
Construct: gene MAP3K13
Conditions: concentration: 1 μM,replicates: in singlicate; n = 1;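 further: KINOMEscan kinase panel screen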

{"compound": "Nc1nc(Nc2ccccc2)cc(-c2ccc3c(N)n[nH]c3c2)n1 [GSK2225749]", "%Inh (%)": 0}
{"compound": "Cc1ccc2c(-c3ccncc3)c(-c3ccc(F)cc3)nn2c1.Cl [GW461484]", "%Inh (%)": 0}
{"compound": "CCn1c(-c2nonc2N)nc2c(C#CC(C)(C)O)nc(OCCN)cc21.Cl.Cl [GSK902056]", "%Inh (%)": 0}
{"compound": "O=C(NCCCN1CCOC1=O)c1cnc(NCc2cc(Cl)ccc2Cl)nc1NC1CCCC1", "%Inh (%)": 20}
{"compound": "COc1ccc(C[C@@H](CN)NC(=O)c2cc(Br)c(-c3ccnc4[nH]ccc34)s2)cc1.Cl.Cl [GSK1389063]", "%Inh (%)": 0}
{"compound": "CC(C)N1C(=O)Cc2cc(Nc3ncc(C(F)(F)F)c(NCc4cccc(S(C)(=O)=O)c4)n3)ccc21", "%Inh (%)": 40}
{"compound": "Cc1cc(C(=O)Nc2ccc(Oc3ccc4nc(NC(=O)C5CC5)cn4n3)cc2)nn1-c1ccccc1", "%Inh (%)": 3}
{"compound": "CC(C)Nc1cc(-c2ccc3c(N)n[nH]c3c2)nc(N)n1 [GSK2221681]", "%Inh (%)": 0}
{"compound": "CN(C)CCOc1ccc(-c2cc(-c3c[nH]nc3-c3ccccn3)ccn2)cc1 [GW835314]", "%Inh (%)": 0}

----------
Test system: LRRK2
Conditions: concentration: 1 μM,replicates: in singlicate; n = 1

{"molecule": "O=C(NCCCN1CCOC1=O)c1cnc(NCc2cc(Cl)ccc2Cl)nc1NC1CCCC1", "%Inh [%]": 0}
{"molecule": "Cc1ccc2c(-c3ccncc3)c(-c3ccc(F)cc3)nn2c1.Cl", "%Inh [%]": 6}
{"molecule": "CN(C)CCOc1ccc(-c2cc(-c3c[nH]nc3-c3ccccn3)ccn2)cc1", "%Inh [%]": 0}
{"molecule": "CNC(=O)c1ccccc1Sc1ccc2c(/C=C/c3ccccn3)n[nH]c2c1", "%Inh [%]": 26}
{"molecule": "Cl.Cl.NC[C@H](CC1CCCCC1)NC(=O)c1cc(Br)c(-c2ccnc3[nH]ccc23)s1", "%Inh [%]": 7}
{"molecule": "Cc1occc1-c1nc(N)c(OC[C@@H](N)Cc2c[nH]c3ccccc23)cc1-c1cc2c(C)n[nH]c2cn1", "%Inh [%]": 36}
{"molecule": "Cl.Oc1cc(-c2nc(-c3ccccc3)[nH]c2-c2ccncc2)ccc1Cl", "%Inh [%]": 0}
{"molecule": "COc1ccc(C[C@@H](CN)NC(=O)c2cc(Br)c(-c3ccnc4[nH]ccc34)s2)cc1.Cl.Cl", "%Inh [%]": 65}
{"molecule": "NC(=O)c1cc(-c2ccccc2)cc2c(C3CCNCC3)c[nH]c12", "%Inh [%]": 2}
{"molecule": "CN(C)CC(O)COc1ccc(Nc2nccc(-c3cnn4nc(N5CCOCC5)ccc34)n2)cc1 (stereo not shown)", "%Inh [%]": 0}
{"molecule": "C[C@@H]1CCN(C(=O)CC#N)C[C@@H]1N(C)c1ncnc2[nH]ccc12", "%Inh [%]": 0}
{"molecule": "C[C@@H](Oc1cc(-c2cnn(C3CCNCC3)c2)cnc1N)c1c(Cl)ccc(F)c1Cl", "%Inh [%]": 0}
{"molecule": "Cc1ccc(-n2nc(C(C)(C)C)cc2NC(=O)Nc2ccc(OCCN3CCOCC3)c3ccccc23)cc1", "%Inh [%]": 0}
{"molecule": "CC(C)Nc1cc(-c2ccc3c(N)n[nH]c3c2)nc(N)n1", "%Inh [%]": 14}
{"molecule": "Cc1cc(C(=O)Nc2ccc(Oc3ccc4nc(NC(=O)C5CC5)cn4n3)cc2)nn1-c1ccccc1", "%Inh [%]": 0}
{"molecule": "CC(C)N1C(=O)Cc2cc(Nc3ncc(C(F)(F)F)c(NCc4cccc(S(C)(=O)=O)c4)n3)ccc21", "%Inh [%]": 34}
{"molecule": "CCN(CC)CCCCNc1ncc2cc(-c3c(Cl)cccc3Cl)c(NC(=O)NC(C)(C)C)nc2n1", "%Inh [%]": 0}
{"molecule": "C[C@H]1Oc2cc(cnc2N)-c2c(nn(C)c2C#N)CN(C)C(=O)c2ccc(F)cc21", "%Inh [%]": 0}
{"molecule": "Cc1cc2cn[nH]c2cc1-c1cccc2c(N)c(C(N)=O)nnc12", "%Inh [%]": 86}

----------
Tested on: EPHB2
Conditions: concentration: 1 μM,replicates: in singlicate; n = 1
Binarize %Inh at 1%; below is yes, at or above is no.

{"compound": "Cl.Cl.NC[C@H](Cc1ccc(C(F)(F)F)cc1)NC(=O)c1cc(Br)c(-c2ccnc3[nH]ccc23)s1 [GSK1487252]", "classification": "no"}
{"compound": "CCN(CC)CCOc1ccc(Nc2ncc3cc(-c4c(Cl)cccc4Cl)c(=O)n(C)c3n2)cc1 [SB-601273]", "classification": "no"}
{"compound": "Cc1occc1-c1nc(N)c(OC[C@@H](N)Cc2c[nH]c3ccccc23)cc1-c1cc2c(C)n[nH]c2cn1 [GSK1660450]", "classification": "yes"}
{"compound": "Cc1n[nH]c2ccc(-c3cc(OC[C@@H](N)Cc4ccccc4)cnc3-c3ccoc3)cc12.O=C(O)C(F)(F)F.O=C(O)C(F)(F)F [GSK507358]", "classification": "yes"}
{"compound": "O=C(NCCCN1CCOC1=O)c1cnc(NCc2cc(Cl)ccc2Cl)nc1NC1CCCC1", "classification": "no"}
{"compound": "CC(C)N1C(=O)Cc2cc(Nc3ncc(C(F)(F)F)c(NCc4cccc(S(C)(=O)=O)c4)n3)ccc21", "classification": "no"}
{"compound": "CC(C)Nc1cc(-c2ccc3c(N)n[nH]c3c2)nc(N)n1 [GSK2221681]", "classification": "yes"}
{"compound": "Cl.Oc1cc(-c2nc(-c3ccccc3)[nH]c2-c2ccncc2)ccc1Cl [SB-386023]", "classification": "yes"}

----------
Measured %Inh, listed per entry.
Test system: PKAC-alpha
Construct: gene PRKACA
Conditions: concentration: 1 μM,replicates: in singlicate; n = 1
reported_metric: %Inh (%)

{"molecule": "CN(C)CC(O)COc1ccc(Nc2nccc(-c3cnn4nc(N5CCOCC5)ccc34)n2)cc1 (stereo not shown) [GW767488]", "reported_metric": "%Inh", "measurement_unit": "%", "observed_measurement": 0}
{"molecule": "Cc1ccc(-n2nc(C(C)(C)C)cc2NC(=O)Nc2ccc(OCCN3CCOCC3)c3ccccc23)cc1 [GW839464]", "reported_metric": "%Inh", "measurement_unit": "%", "observed_measurement": 0}
{"molecule": "Cl.Cl.Nc1nc(-c2ccc3c(N)n[nH]c3c2)cc(N2CCCC(NC(=O)c3ccccc3)C2)n1 (stereo not shown) [GSK2286775]", "reported_metric": "%Inh", "measurement_unit": "%", "observed_measurement": 0}
{"molecule": "O=C(NCCNc1ccnc(NCc2ccc(F)cc2)n1)c1cc2ccccc2s1 [GSK1379944]", "reported_metric": "%Inh", "measurement_unit": "%", "observed_measurement": 7}

----------
Test system: VEGFR2
Construct: gene KDR
Details: concentration: 1 μM,replicates: in singlicate; n = 1
Examples of compounds with documented %Inh follow.

{"compound": "CCn1c(-c2nonc2N)nc2c(C#CC(C)(C)O)nc(OCCN)cc21.Cl.Cl", "measured_target": "VEGFR2", "measurement_unit": "%", "%Inh": 0}
{"compound": "C=CC(=O)Nc1cc2c(Nc3ccc(F)c(Cl)c3)ncnc2cc1OCCCN1CCOCC1", "measured_target": "VEGFR2", "measurement_unit": "%", "%Inh": 0}
{"compound": "C[C@@H](Oc1cc(-c2cnn(C3CCNCC3)c2)cnc1N)c1c(Cl)ccc(F)c1Cl", "measured_target": "VEGFR2", "measurement_unit": "%", "%Inh": 22}
{"compound": "Cl.Cl.Nc1nc(-c2ccc3c(N)n[nH]c3c2)cc(N2CCCC(NC(=O)c3ccccc3)C2)n1 (centres unmarked)", "measured_target": "VEGFR2", "measurement_unit": "%", "%Inh": 9}
{"compound": "CC(C)Nc1cc(-c2ccc3c(N)n[nH]c3c2)nc(N)n1", "measured_target": "VEGFR2", "measurement_unit": "%", "%Inh": 4}

----------
Below: a set of entries, each annotated with reported %Inh.
Test system: MEK1
Construct: gene MAP2K1
Conditions: concentration: 1 μM,replicates: in singlicate; n = 1

{"molecule": "Cc1ccc2c(-c3ccncc3)c(-c3ccc(F)cc3)nn2c1.Cl", "%Inh / %": 0}
{"molecule": "CC(C)N1C(=O)Cc2cc(Nc3ncc(C(F)(F)F)c(NCc4cccc(S(C)(=O)=O)c4)n3)ccc21", "%Inh / %": 27}
{"molecule": "CNC(=O)c1ccccc1Sc1ccc2c(/C=C/c3ccccn3)n[nH]c2c1", "%Inh / %": 0}
{"molecule": "Cl.Oc1cc(-c2nc(-c3ccccc3)[nH]c2-c2ccncc2)ccc1Cl", "%Inh / %": 0}
{"molecule": "NC(=O)c1cc(-c2ccccc2)cc2c(C3CCNCC3)c[nH]c12", "%Inh / %": 0}
{"molecule": "CCn1c(-c2nonc2N)nc2c(C#CC(C)(C)O)nc(OCCN)cc21.Cl.Cl", "%Inh / %": 0}
{"molecule": "Cl.Cl.Nc1nc(-c2ccc3c(N)n[nH]c3c2)cc(N2CCCC(NC(=O)c3ccccc3)C2)n1 (stereo not drawn)", "%Inh / %": 0}
{"molecule": "CN(C)CC(O)COc1ccc(Nc2nccc(-c3cnn4nc(N5CCOCC5)ccc34)n2)cc1 (stereo not drawn)", "%Inh / %": 24}
{"molecule": "O=C(NCCCN1CCOC1=O)c1cnc(NCc2cc(Cl)ccc2Cl)nc1NC1CCCC1", "%Inh / %": 0}
{"molecule": "CCN(CC)CCOc1ccc(Nc2ncc3cc(-c4c(Cl)cccc4Cl)c(=O)n(C)c3n2)cc1", "%Inh / %": 98.1}
{"molecule": "CCN(CC)CCCCNc1ncc2cc(-c3c(Cl)cccc3Cl)c(NC(=O)NC(C)(C)C)nc2n1", "%Inh / %": 23}
{"molecule": "Cc1ccc(-n2nc(C(C)(C)C)cc2NC(=O)Nc2ccc(OCCN3CCOCC3)c3ccccc23)cc1", "%Inh / %": 0}
